molecular target: [Pyruvate dehydrogenase (acetyl-transferring)] kinase isozyme 2, mitochondrial (Homo sapiens, UniProt Q15119); experiment: Inhibition of PDK2 (unknown origin) using PDCE1 as substrate at 5 uM incubated for 30 mins by kinase-Glo reagent based luminescence assay relative to control
Active and inactive are the calls of the source. The rule behind the calls is not given here.

[
  {
    "COMPOUND": "CC(C)NC(=O)COc1coc(CN2CCN(c3ccccc3F)CC2)cc1=O",
    "inhibition": "79.7%"
  },
  {
    "COMPOUND": "O=C(C1=C(CO)C(=O)N(CCCN2CCOCC2)[C@H]1c1ccncc1)c1cccs1",
    "inhibition": "inactive"
  },
  {
    "COMPOUND": "O=C(CCn1ccc(=O)[nH]c1=O)N1CCC(Cc2n[nH]c(=O)n2-c2ccccc2F)CC1",
    "inhibition": "inactive"
  },
  {
    "COMPOUND": "Cc1cc(N2CCCCC2)nc(CNC(=O)CNC(=O)c2ccccc2)n1",
    "inhibition": "20.1%"
  },
  {
    "COMPOUND": "COc1ccc(N2CCn3c2nnc(C(=O)NCCCN(C)C)c3=O)cc1",
    "inhibition": "inactive"
  },
  {
    "COMPOUND": "O=C(COc1coc(CN2CCN(c3cccc(Cl)c3)CC2)cc1=O)NC1CCCC1",
    "inhibition": "47.5%"
  },
  {
    "COMPOUND": "CC(C)NC(=O)COc1coc(CN2CCN(c3ccccc3)CC2)cc1=O",
    "inhibition": "64.3%"
  },
  {
    "COMPOUND": "O=C(CCn1ccc(=O)[nH]c1=O)N1CCN(C2=CC3CCCCC3N=N2)CC1 (centres undefined)",
    "inhibition": "inactive"
  },
  {
    "COMPOUND": "COc1cccc(C(=O)NCc2nc(N3CCCC3)nc(N3CCOCC3)n2)c1",
    "inhibition": "inactive"
  }
]
